Recorded melting point values for a group of compounds are listed next.
ENDPOINT: melting point

- CC(O)CN1CCn2nc(-c3ccncc3)c(-c3ccc(OCc4ccc(C5CC5)cc4)cc3)c2C1=O (stereo not drawn) [Compound 135]: 197 °C
- CC(C)c1ccc(COc2ccc(-c3c(-c4ccncc4)nn4c3C(=O)NCC4)cn2)cc1 [Compound 71]: 199 °C
- CC(C)c1cc(F)c(COc2ccc(-c3c(-c4ccncc4)nn4c3C(=O)N(CCO)CC4)cc2)cc1F [Compound 97]: 147 °C
- CC(C)(O)c1ccc(COc2ccc(-c3c(-c4ccncc4)nn4c3C(=O)N(CCO)CC4)cc2)cc1 [Compound 115]: 193 °C
- CC(C)c1ccc(COc2ccc(-c3c(-c4ccncn4)nn4c3C(=O)N(CCO)CC4)cc2)cc1 [Compound 159]: 160 °C
- CC(C)c1ccc(COc2ccc(-c3c(-c4ccncc4)nn4c3CNC(=O)C4)cc2)cc1 [Compound 237]: 281 °C
- CC(C)c1ccc(COc2ccc(-c3c(-c4ccncc4)nn4c3CN(CCN)CC4)cc2)cc1 [Compound 210]: 197 °C
- Cc1cc(-c2c(-c3ccncc3)nn3c2C(=O)N(CCO)CC3)cc(C)c1OCc1ccc(C(C)C)cc1 [Compound 30]: 170 °C
- O=C1NCCn2nc(-c3ccncc3)c(-c3ccc(OCc4ccc(C5CC5)cc4)cc3)c21 [Compound 4]: 262 °C

###

Recorded Ba/3 Ros1 G2032R (-IL-3) pIC50 values for a group of compounds are listed next.
TARGET_OR_TEST_SYSTEM: Ba/F3 cells containing Ros1 with G2032R mutation (Homo sapiens, UniProt P08922, G2032R, cells depend on it, form not given)
Sequence (P08922 whole entry G2032R, form open): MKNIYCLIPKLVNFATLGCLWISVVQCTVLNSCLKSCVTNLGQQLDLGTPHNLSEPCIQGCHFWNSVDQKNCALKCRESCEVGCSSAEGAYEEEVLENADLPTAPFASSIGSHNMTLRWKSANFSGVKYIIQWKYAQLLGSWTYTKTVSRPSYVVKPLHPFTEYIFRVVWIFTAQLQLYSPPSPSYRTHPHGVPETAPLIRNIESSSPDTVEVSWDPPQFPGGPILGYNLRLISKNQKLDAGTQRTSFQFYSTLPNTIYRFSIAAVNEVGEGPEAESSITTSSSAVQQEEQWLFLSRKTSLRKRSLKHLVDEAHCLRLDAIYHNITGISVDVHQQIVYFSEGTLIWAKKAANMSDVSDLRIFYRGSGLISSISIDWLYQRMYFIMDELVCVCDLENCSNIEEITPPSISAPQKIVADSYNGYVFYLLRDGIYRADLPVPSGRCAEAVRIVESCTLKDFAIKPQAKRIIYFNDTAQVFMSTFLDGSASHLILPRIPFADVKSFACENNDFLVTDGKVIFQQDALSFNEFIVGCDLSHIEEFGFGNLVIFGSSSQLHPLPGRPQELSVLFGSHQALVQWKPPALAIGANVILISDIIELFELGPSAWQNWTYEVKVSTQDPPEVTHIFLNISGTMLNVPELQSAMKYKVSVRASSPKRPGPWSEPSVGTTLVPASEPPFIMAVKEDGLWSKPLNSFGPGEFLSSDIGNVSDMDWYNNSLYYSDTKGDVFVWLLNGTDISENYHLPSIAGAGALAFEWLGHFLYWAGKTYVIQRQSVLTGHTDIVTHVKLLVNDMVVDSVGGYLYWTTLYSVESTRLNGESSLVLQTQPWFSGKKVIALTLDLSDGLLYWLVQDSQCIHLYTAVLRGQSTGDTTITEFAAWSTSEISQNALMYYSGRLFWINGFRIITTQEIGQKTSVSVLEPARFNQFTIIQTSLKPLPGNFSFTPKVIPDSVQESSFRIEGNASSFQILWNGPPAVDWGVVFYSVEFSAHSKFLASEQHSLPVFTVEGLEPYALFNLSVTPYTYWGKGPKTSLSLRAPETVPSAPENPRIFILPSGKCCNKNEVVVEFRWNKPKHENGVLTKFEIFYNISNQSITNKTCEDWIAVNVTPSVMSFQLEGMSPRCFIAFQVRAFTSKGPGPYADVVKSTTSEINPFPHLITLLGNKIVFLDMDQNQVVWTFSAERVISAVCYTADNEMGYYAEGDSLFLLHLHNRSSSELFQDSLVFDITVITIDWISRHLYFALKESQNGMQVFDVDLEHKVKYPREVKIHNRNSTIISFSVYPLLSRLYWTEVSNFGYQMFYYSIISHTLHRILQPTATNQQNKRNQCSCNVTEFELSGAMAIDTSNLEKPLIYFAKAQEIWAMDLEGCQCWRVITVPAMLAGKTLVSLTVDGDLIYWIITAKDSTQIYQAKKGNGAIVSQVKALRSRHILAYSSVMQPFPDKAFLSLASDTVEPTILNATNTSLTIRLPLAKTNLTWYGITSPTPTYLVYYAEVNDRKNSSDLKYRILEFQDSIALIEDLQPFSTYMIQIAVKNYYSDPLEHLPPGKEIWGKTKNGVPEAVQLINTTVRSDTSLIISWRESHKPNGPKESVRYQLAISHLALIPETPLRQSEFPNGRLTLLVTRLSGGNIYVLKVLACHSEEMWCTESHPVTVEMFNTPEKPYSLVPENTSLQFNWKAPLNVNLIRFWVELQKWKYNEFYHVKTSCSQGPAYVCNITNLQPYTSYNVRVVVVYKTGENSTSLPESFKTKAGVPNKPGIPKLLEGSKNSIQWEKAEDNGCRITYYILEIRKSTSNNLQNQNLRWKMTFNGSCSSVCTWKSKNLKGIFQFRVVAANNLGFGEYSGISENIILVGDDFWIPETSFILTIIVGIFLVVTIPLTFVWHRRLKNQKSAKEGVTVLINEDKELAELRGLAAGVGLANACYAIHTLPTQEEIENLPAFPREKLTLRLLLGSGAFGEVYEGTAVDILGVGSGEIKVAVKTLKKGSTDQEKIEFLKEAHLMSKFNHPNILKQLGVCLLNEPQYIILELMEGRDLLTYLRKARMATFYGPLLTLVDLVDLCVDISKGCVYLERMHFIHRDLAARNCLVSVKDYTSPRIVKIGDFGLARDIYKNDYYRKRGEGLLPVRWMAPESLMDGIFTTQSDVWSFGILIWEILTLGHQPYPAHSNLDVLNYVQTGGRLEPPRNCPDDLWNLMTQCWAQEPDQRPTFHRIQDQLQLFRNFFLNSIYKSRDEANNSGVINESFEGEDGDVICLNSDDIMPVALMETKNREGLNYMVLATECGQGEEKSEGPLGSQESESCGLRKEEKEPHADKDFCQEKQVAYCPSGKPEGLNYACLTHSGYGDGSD
TEST_NAME: Ba/F3-Ros1 cell proliferation assay, G2032R crizotinib-resistance mutant
Format: cell-based, murine
RUN_PARAMETERS: without IL-3
ENDPOINT: Ba/3 Ros1 G2032R (-IL-3) pIC50

• CC(O)CN1CCn2nc(-c3ccncc3)c(-c3ccc(OCc4ccc(C(C)C)cc4)cc3)c2C1=O (stereo not drawn) [Compound 46] = 6.9
• c1cc(-c2nn3c(c2-c2ccc(OCc4ccc(C5CC5)cc4)cc2)CNC2(CC2)C3)ccn1 [Compound 171] = 6.0
• CC(C)c1ccc(COc2ccc(-c3c(-c4ccncc4)nn4c3C(=O)N(CC(O)CO)CC4)cc2)cc1 (stereo not drawn) [Compound 44] = 6.8
• CN1CCn2nc(-c3ccncc3)c(-c3ccc(OCc4ccc(C5CC5)nc4)cc3)c2C1=O [Compound 138] = 6.0
• COCCc1cc(COc2ccc(-c3c(-c4ccncc4)nn4c3C(=O)NCC4)cc2)ccc1C(C)C [Compound 84] = 7.0
• CC(C)c1ccc(COc2ccc(-c3c(-c4ccnc(N)c4)nn4c3C(=O)NCC4)cc2)cc1 [Compound 7] = 6.8

###

Recorded Ba/3 Ros1 G2032R (-IL-3) pIC50 values for a group of compounds are listed next.
TARGET_OR_TEST_SYSTEM: Ba/F3 cells containing Ros1 with G2032R mutation (Homo sapiens, UniProt P08922, G2032R, cells depend on it, form not given)
TEST_NAME: Ba/F3-Ros1 cell proliferation assay, G2032R crizotinib-resistance mutant
Format: cell-based, murine
RUN_PARAMETERS: without IL-3
ENDPOINT: Ba/3 Ros1 G2032R (-IL-3) pIC50

• COc1cc(-c2c(-c3ccncc3)nn3c2C(=O)NCC3)ccc1OCc1ccc(C(C)C)cc1 [Compound 32] = 7.3
• CC(C)c1ccc(COc2ccc(-c3c(-c4ccncc4)nn4c3C(=O)N(CC3(C)COC3)CC4)cc2)cc1 [Compound 54] = 6.6
• CC(C)c1ccc(COc2ccc(-c3c(-c4ccncc4)nn4c3C(=O)N(CCOCCO)CC4)cc2)cc1 [Compound 53] = 7.0
• CC(C)c1ccc(COc2ccc(-c3c(-c4ccncc4)nn4c3C(=O)N(CC(C)(C)O)CC4)cc2)cc1 [Compound 51] = 6.6
• CNC(=O)CN1CCn2nc(-c3ccncc3)c(-c3ccc(OCc4ccc(C(C)C)cc4)cc3)c2C1=O [Compound 63] = 6.7
• CC(C)c1ccc(COc2ccc(-c3c(-c4ccncc4)nn4c3C(=O)NCC4)c(F)c2)cc1 [Compound 6] = 7.4
• CC(C)c1ccc(COc2ccc(-c3c(-c4ccncc4)nn4c3C(=O)N(CCO)CC4)cc2)cc1 [Compound 2] = 7.1
• O=C1NCCn2nc(-c3ccncc3)c(-c3ccc(OCc4ccc(C5CC5)cc4)cc3)c21 [Compound 4] = 6.8

###

Recorded BaF3-ROS1-IL3 pIC50 values for a group of compounds are listed next.
TARGET_OR_TEST_SYSTEM: Ba/F3 cells containing Ros1 wild-type protein (Homo sapiens, UniProt P08922, cells depend on it, form not given)
Construct: The background only speaks of 'a number of different unrelated proteins' and names SLC34A2-ROS1 for HCC78 cells
Sequence (P08922 whole entry, stated change not applied): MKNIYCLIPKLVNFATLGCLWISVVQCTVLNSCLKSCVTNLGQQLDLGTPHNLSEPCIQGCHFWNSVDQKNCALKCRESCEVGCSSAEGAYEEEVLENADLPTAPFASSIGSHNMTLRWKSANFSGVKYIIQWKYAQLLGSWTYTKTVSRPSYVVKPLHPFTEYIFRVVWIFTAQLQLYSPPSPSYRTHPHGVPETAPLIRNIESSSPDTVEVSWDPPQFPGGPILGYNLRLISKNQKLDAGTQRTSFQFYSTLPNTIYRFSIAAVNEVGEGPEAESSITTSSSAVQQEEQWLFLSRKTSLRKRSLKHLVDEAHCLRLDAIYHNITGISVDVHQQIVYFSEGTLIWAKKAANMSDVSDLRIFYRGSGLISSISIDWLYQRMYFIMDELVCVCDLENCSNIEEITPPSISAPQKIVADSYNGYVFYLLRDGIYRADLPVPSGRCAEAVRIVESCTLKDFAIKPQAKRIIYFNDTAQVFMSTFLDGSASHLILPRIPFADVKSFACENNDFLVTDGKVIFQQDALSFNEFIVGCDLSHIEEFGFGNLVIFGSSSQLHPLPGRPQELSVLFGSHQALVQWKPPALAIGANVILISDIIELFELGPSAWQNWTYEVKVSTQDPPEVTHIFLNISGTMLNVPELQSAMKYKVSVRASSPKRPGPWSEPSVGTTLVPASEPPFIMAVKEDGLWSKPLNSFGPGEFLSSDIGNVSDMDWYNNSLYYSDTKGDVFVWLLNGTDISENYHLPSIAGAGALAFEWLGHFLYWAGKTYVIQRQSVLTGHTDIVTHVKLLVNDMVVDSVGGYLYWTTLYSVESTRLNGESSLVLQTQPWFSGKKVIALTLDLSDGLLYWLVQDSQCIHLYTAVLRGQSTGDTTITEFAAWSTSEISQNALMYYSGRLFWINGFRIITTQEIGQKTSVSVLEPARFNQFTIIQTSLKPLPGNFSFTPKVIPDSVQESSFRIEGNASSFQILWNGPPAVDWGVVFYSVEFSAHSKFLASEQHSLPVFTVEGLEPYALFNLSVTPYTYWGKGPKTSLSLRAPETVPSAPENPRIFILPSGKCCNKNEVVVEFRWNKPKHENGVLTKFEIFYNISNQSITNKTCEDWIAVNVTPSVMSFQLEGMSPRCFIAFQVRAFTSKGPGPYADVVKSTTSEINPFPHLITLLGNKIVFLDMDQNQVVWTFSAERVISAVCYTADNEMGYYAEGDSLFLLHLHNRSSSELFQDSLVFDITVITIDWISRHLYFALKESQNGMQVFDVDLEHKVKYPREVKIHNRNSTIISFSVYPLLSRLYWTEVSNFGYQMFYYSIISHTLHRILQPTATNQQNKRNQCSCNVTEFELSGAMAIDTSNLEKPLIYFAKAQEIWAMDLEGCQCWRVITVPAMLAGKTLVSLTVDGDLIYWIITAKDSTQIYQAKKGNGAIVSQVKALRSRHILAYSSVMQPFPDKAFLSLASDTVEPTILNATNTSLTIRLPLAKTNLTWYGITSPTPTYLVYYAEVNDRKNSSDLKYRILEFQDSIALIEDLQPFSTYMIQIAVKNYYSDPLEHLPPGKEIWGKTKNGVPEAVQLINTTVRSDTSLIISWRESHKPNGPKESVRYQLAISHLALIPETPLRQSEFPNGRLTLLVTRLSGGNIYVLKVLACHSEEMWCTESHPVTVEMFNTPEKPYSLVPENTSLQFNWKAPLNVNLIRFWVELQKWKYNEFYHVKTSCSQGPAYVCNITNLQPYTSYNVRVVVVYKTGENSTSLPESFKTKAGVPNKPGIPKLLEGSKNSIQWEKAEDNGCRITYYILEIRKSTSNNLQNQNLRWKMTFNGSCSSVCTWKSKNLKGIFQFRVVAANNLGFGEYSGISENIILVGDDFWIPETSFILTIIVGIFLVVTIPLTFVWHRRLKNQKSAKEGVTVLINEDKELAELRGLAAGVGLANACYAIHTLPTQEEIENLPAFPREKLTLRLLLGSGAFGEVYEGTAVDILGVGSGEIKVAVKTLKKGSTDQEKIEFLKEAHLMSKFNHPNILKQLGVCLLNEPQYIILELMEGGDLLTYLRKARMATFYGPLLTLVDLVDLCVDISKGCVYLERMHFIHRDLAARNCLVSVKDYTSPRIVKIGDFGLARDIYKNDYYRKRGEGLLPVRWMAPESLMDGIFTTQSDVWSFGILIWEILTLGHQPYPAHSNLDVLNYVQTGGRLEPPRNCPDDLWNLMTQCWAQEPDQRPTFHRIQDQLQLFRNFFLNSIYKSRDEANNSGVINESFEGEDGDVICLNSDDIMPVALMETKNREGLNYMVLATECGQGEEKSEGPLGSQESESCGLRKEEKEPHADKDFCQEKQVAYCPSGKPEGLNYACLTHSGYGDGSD
TEST_NAME: Ba/F3-Ros1 cell proliferation assay, wild-type Ros1
Format: cell-based, murine
RUN_PARAMETERS: without IL-3
ENDPOINT: BaF3-ROS1-IL3 pIC50

• CC(C)c1ccc(COc2ccc(-c3c(-c4ccncc4)nn4c3C(=O)N(CCS(C)(=O)=O)CC4)cn2)cc1 [Compound 213] = 7.0
• CC(C)c1ccc(C(CO)Oc2ccc(-c3c(-c4ccncc4)nn4c3C(=O)NCC4)cc2)cc1 (stereo not drawn) [Compound 146] = 6.2
• O=C1c2c(-c3ccc(OCc4ccc(C5CC5)cc4F)cc3)c(-c3ccncc3)nn2CCN1CCO [Compound 136] = 7.1

###

TARGET_OR_TEST_SYSTEM: Ba/F3 cells containing Ros1 wild-type protein (Homo sapiens, UniProt P08922, cells depend on it, form not given)
Construct: The background only speaks of 'a number of different unrelated proteins' and names SLC34A2-ROS1 for HCC78 cells
TEST_NAME: Ba/F3-Ros1 cell proliferation assay, wild-type Ros1
Format: cell-based, murine
RUN_PARAMETERS: without IL-3
Recorded BaF3-ROS1-IL3 pIC50 values for a group of compounds are listed next.
ENDPOINT: BaF3-ROS1-IL3 pIC50

• N#Cc1ccc(COc2ccc(-c3c(-c4ccncc4)nn4c3C(=O)NCC4)cc2)cc1Cl = 6.4
• CC1CNCc2c(-c3ccc(OCc4ccc(C5CC5)cc4)cc3)c(-c3ccncc3)nn21 (centres unmarked) = 5.8
• O=C1c2c(-c3ccc(OCc4ccc(OC(F)(F)F)cc4)cc3F)c(-c3ccncc3)nn2CCN1CCO = 7.5
• O=C1NCCn2nc(-c3ccncc3)c(-c3ccc(OCc4ccc(OC(F)F)cc4)cc3)c21 = 7.1
• CC(C)c1ccc(COc2ccc(-c3c(-c4ccncc4)nn4c3C(=O)N(C)CC4)cc2)cc1CCO = 7.6
• CC(C)Oc1ccc(COc2ccc(-c3c(-c4ccncc4)nn4c3C(=O)NCC4)cc2)cc1 = 6.4
• CC(C)c1ccc(COc2ccc(-c3c(-c4ccncc4C#N)nn4c3C(=O)NCC4)cc2)cc1 = 7.5
• O=C1NCCn2nc(-c3ccncn3)c(-c3ccc(OCc4ccc(C5CC5)nc4)cc3)c21 = 6.5
• CC(C)c1ccc(COc2ccc(-c3c(-c4ccncc4)nn4c3C(=O)N(CCO)CC4)c(C#N)c2)cc1 = 7.8
• CC(C)c1ccc(COc2ccc(-c3c(-c4ccncc4)nn4c3C(=O)NC(CO)C4)cc2)cc1 (centres unmarked) = 7.3
• CC(C)OCC(O)CN1CCn2nc(-c3ccncc3)c(-c3ccc(OCc4ccc(C(C)C)cc4)cc3)c2C1=O (centres unmarked) = 6.7
• O=C1NCCn2nc(-c3ccncn3)c(-c3ccc(OCc4ccc(C5CC5)cc4)cc3)c21 = 6.9
• CC(C)c1cc(F)c(COc2ccc(-c3c(-c4ccncc4)nn4c3C(=O)N(CC(O)CO)CC4)cc2)cc1F (centres unmarked) [Compound 99] = 6.6
• NCc1cccc(COc2ccc(-c3c(-c4ccncc4)nn4c3C(=O)NCC4)cc2)c1 = 5.6
• O=C1c2c(-c3ccc(OCc4ccc(C5CC5)nc4)cc3F)c(-c3ccncc3)nn2CCN1CC(O)CO (centres unmarked) = 6.8
• CC(C)c1ccc(COc2ccc(-c3c(-c4ccncc4)nn4c3C(=O)NCC4)cc2)cc1CCO = 7.7
• CCC(C)c1ccc(COc2ccc(-c3c(-c4ccncc4)nn4c3C(=O)N(CCO)CC4)cc2)cc1 (centres unmarked) = 7.7
• O=C1c2c(-c3ccc(OCc4ccc(C5CC5)nc4)cc3)c(-c3ccncc3)nn2CCN1CC(O)CO (centres unmarked) = 6.4
• CC(C)c1ccc(C2CNc3cc(-c4c(-c5ccncc5)nn5c4C(=O)NCC5)ccc3O2)cc1 (centres unmarked) [Compound 224] = 6.7
• CNCCc1cc(COc2ccc(-c3c(-c4ccncc4)nn4c3C(=O)N(CCO)CC4)cc2)ccc1C(C)C = 6.7

###

Recorded Ba/F3 Ros1 L2026M (-IL-3) pIC50 values for a group of compounds are listed next.
TARGET_OR_TEST_SYSTEM: Ba/F3 cells containing Ros1 with a mutation at the gatekeeper residue (L2026M) (Homo sapiens, UniProt P08922, L2026M, cells depend on it, form not given)
Sequence (P08922 whole entry L2026M, form open): as the sequence (P08922 whole entry G2032R, form open) above, with L2026M, R2032G counted along it
TEST_NAME: Ba/F3-Ros1 cell proliferation assay, L2026M gatekeeper mutant
Type: cell-based, murine
RUN_PARAMETERS: without IL-3
ENDPOINT: Ba/F3 Ros1 L2026M (-IL-3) pIC50

* CC(C)c1ccc(COc2ccc(-c3c(-c4ccncc4)nn4c3C(=O)NCC4)c(C#N)c2)cc1 [Compound 27] | 7.1
* CC(C)c1ccc(COc2ccc(-c3c(-c4ccncc4)nn4c3CN(CC(=O)NCCO)CC4)cc2)cc1 [Compound 175] | 6.8
* CN1CCn2nc(-c3ccncc3)c(-c3ccc(OCc4ccc(C5CC5)nc4)cc3)c2C1=O [Compound 138] | 6.8
* CC(C)c1ccc(COc2ccc(-c3c(-c4ccncc4)nn4c3C(=O)NCC4)cc2)cc1CN [Compound 86] | 6.9
* CC(C)c1ccc(COc2ccc(-c3c(-c4ccncc4C#N)nn4c3C(=O)NCC4)cc2)cc1 [Compound 153] | 6.8
* CC(C)c1ccc(COc2ccc(-c3c(-c4ccncc4)nn4c3C(=O)N(CC(O)CO)CC4)c(F)c2)cc1 (stereo not shown) [Compound 23] | 7.2
* CC(C)c1ccc(COc2ccc(-c3c(-c4ccncc4)nn4c3C(=O)NC(CN(C)CCO)C4)cc2)cc1 (stereo not shown) [Compound 195] | 7.0
* Cc1cc(-c2c(-c3ccncc3)nn3c2C(=O)N(CCO)CC3)cc(C)c1OCc1ccc(C(C)C)cc1 [Compound 30] | <5
* CC(C)(C#N)c1ccc(COc2ccc(-c3c(-c4ccncc4)nn4c3C(=O)N(CCO)CC4)cc2)cc1 [Compound 122] | 7.1
* COc1cc(-c2c(-c3ccncc3)nn3c2C(=O)NCC3)cc(OC)c1OCc1ccc(C(C)C)cc1 [Compound 35] | 5.8
* CC(C)Cc1ccc(COc2ccc(-c3c(-c4ccncc4)nn4c3C(=O)N(CCO)CC4)cc2)cc1 [Compound 109] | 7.2
* CC(C)c1ccc(COc2ccc(-c3c(-c4ccnc5[nH]ccc45)nn4c3C(=O)N(CCO)CC4)cc2)cc1 [Compound 156] | 7.0
* CC(C)c1ccc(COc2ccc(-c3c(-c4ccncc4)nn4c3C(=O)N(CCO)CC4)cc2)cc1CCO [Compound 83] | 7.2
* CC(C)c1ccc(COc2ccc(-c3c(-c4ccncc4)nn4c3C(=O)N(CC3CNC(=O)O3)CC4)cc2)cc1 (stereo not shown) [Compound 56] | 7.0
* COc1cc(C(C)C)ccc1COc1ccc(-c2c(-c3ccncc3)nn3c2C(=O)NCC3)cc1 [Compound 216] | 6.9
* CC(C)(O)c1ccc(COc2ccc(-c3c(-c4ccncc4)nn4c3C(=O)NCC4)cc2)cc1 [Compound 9] | 6.2
* N#CC1(c2ccc(COc3ccc(-c4c(-c5ccncc5)nn5c4C(=O)NCC5)cc3)cc2)CC1 [Compound 123] | 7.1
* CC(C)c1ccc(COc2ccc(-c3c(-c4ccncc4)nn4c3C(=O)NCC4)nc2)cc1 [Compound 12] | 6.7
* Fc1cc(OCc2ccc(C3CC3)cc2)ccc1-c1c(-c2ccncc2)nn2c1CNCC2 [Compound 184] | 6.6
* CC(C)c1cc(F)c(COc2ccc(-c3c(-c4ccncc4)nn4c3C(=O)N(CCO)CC4)cc2)c(F)c1 [Compound 94] | 6.6
* CC(C)c1ccc(COc2ccc(-c3c(-c4ccncc4)nn4c3C(=O)NCC4)c(F)c2)cc1 [Compound 6] | 7.7
* CNC(=O)CN1CCn2nc(-c3ccncc3)c(-c3ccc(OCc4ccc(C(C)C)cc4)cc3)c2C1=O [Compound 63] | 7.3
* CC(C)c1ccc(COc2ccc(-c3c(-c4ccncc4)nn4c3C(=O)NCC4)cc2)cc1 [Compound 1] | 7.3
* CC(C)c1ccc(COc2ccc(-c3c(-c4ccncc4)nn4c3CN(CCO)CC4)cc2)cc1 [Compound 176] | 7.1
* CC(C)c1ccc(C(CN)Oc2ccc(-c3c(-c4ccncc4)nn4c3C(=O)NCC4)cc2)cc1 (stereo not shown) [Compound 147] | 6.7
